- ASSAY REMARKS: Human metabolic stability half-life assay
- Assay type: in vitro ADME
- STATED CONDITIONS: liver microsomes, pH 7.4, human liver microsomes, 0.5 μM compound, NADPH, 45-minute time course, read-out: HLM t1/2
// half-life at 0.5 μM lookup, one value per entry

Past entries and their recorded results:
NC(=O)[C@@H](CCC(F)(F)F)[C@@H](CCC(F)(F)F)C(=O)N[C@H]1CN(c2cccc(Cl)c2)c2cccc(C3CC3)c2NC1=O ... ≥ 31 min
NC(=O)[C@@H](CCC(F)(F)F)[C@@H](CCC(F)(F)F)C(=O)N[C@H]1CN(c2ccccc2)c2ccc(F)cc2NC1=O ... ≥ 31 min

Would you kindly look at the next entry?
QUERY: Please give the measured half-life at 0.5 μM for this compound: NC(=O)[C@@H](CCC(F)(F)F)[C@@H](CCC(F)(F)F)C(=O)N[C@H]1CN(c2cccc(Cl)c2)c2cccc(Cl)c2NC1=O
RESULT: ≥ 31 min
